# target.of.assay: Protein deacetylase HDAC6 (Homo sapiens) (UniProt Q9UBN7)
# Sequence (whole entry): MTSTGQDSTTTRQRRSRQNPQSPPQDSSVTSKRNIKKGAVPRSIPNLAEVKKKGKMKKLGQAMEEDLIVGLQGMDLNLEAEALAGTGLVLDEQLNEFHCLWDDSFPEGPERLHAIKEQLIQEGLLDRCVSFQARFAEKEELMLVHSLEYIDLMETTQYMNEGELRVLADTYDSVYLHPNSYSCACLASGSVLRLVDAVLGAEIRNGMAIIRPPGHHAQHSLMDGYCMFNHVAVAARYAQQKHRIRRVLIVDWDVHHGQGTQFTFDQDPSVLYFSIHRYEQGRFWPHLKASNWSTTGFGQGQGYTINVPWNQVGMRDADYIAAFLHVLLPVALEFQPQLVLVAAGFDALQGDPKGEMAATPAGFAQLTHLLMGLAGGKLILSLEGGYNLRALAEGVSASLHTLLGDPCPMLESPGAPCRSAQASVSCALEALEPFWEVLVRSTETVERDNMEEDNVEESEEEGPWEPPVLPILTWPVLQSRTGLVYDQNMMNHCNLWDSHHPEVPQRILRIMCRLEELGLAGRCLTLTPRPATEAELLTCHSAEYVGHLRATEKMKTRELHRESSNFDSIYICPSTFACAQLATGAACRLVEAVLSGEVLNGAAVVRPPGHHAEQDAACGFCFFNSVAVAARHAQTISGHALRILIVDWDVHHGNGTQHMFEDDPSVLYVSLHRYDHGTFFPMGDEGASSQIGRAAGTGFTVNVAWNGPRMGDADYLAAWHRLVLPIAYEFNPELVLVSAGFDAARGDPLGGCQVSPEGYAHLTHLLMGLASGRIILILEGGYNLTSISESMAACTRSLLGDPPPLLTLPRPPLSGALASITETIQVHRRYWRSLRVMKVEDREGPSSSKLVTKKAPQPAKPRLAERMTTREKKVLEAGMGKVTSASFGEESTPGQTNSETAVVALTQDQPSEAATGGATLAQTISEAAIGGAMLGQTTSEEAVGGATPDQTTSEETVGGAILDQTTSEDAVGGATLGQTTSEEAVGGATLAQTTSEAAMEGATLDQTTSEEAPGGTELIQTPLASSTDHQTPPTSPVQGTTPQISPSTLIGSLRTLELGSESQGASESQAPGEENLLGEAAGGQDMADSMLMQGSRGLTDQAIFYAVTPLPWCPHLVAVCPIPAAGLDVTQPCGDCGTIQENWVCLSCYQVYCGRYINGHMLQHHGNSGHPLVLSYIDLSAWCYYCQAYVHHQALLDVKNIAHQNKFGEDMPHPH
# assay.overview: Inhibition of full-length recombinant human HDAC6 expressed in insect High5 cells using Boc-Lys(-acetyl)-AMC as substrate incubated for 3 hrs
# Design: concentration or dose not given beside the values
# study.conditions: concentration not given here
measurement.kind: inhibition

item.smiles: C[C@@H]1CN2C[C@H]3CC[C@H](O)[C@@H]4C5=C(C[C@@]46C(=O)[C@H]1C[C@@H]2[C@@]36C)C(=O)OCC5
inhibition: < 10%

Enquiry: Requested read-out: inhibition. Entry: C[C@@H]1CN2C[C@H]3CCC4=C5C(=CC[C@@]56C(=O)[C@H]1C[C@@H]2[C@@]36C)[C@@H](O)C4
Return: < 10%

Enquiry: What do you have for COC(=O)[C@@H]1C[C@@]23C(=O)[C@H]4C[C@H]5N(C[C@H]4C)C[C@@H]([C@H](O)CC4=C2[C@@H]1CC4)[C@]53C ?
Return: < 10%
